Tested on: MIA PaCa-2
applied-conditions: OFD1 knockdown: no (no doxycycline)
Reported log10 IC50 cell viability values for a set of molecules
observable: log10 IC50 cell viability (log10 of the value in µM)

INSERT INTO assay_data (molecule, observable, numeric_readout) VALUES
  ('S=C(NCc1ccc2c(c1)OCO2)N1CCN(c2ncnc3c2oc2ccccc23)CC1', 'log10 IC50 cell viability', 1.71),
  ('CNC(=O)c1ccccc1Sc1ccc2c(/C=C/c3ccccn3)n[nH]c2c1', 'log10 IC50 cell viability', 1.59),
  ('CC1(C)O[C@@H]2C[C@H]3[C@@H]4CCC5=CC(=O)C=C[C@]5(C)[C@@]4(F)[C@@H](O)C[C@]3(C)[C@]2(C(=O)CO)O1', 'log10 IC50 cell viability', 1.36),
  ('CC#C[C@]1(O)CC[C@H]2[C@@H]3CCC4=CC(=O)CCC4=C3[C@@H](c3ccc(N(C)C)cc3)C[C@@]21C', 'log10 IC50 cell viability', 0.96),
  ('O=C1CN2Cc3c(ccc(Cl)c3Cl)N=C2N1', 'log10 IC50 cell viability', 0.95),
  ('Cn1cnc2c(F)c(Nc3ccc(Br)cc3Cl)c(C(=O)NOCCO)cc21', 'log10 IC50 cell viability', 0.22),
  ('CC1=C(/C=C/C(C)=C/C=C/C(C)=C/C(=O)O)C(C)(C)CCC1', 'log10 IC50 cell viability', 1.13),
  ('C[C@@H]1CCN(C(=O)CC#N)C[C@@H]1N(C)c1ncnc2[nH]ccc12', 'log10 IC50 cell viability', 0.34),
  ('CCc1c2c(nc3ccc(OC(=O)N4CCC(N5CCCCC5)CC4)cc13)-c1cc3c(c(=O)n1C2)COC(=O)[C@]3(O)CC [S1198]', 'log10 IC50 cell viability', 1.39);
